Molecular target: Vascular endothelial growth factor receptor 1 (Homo sapiens)
Sequence (P17948 whole entry): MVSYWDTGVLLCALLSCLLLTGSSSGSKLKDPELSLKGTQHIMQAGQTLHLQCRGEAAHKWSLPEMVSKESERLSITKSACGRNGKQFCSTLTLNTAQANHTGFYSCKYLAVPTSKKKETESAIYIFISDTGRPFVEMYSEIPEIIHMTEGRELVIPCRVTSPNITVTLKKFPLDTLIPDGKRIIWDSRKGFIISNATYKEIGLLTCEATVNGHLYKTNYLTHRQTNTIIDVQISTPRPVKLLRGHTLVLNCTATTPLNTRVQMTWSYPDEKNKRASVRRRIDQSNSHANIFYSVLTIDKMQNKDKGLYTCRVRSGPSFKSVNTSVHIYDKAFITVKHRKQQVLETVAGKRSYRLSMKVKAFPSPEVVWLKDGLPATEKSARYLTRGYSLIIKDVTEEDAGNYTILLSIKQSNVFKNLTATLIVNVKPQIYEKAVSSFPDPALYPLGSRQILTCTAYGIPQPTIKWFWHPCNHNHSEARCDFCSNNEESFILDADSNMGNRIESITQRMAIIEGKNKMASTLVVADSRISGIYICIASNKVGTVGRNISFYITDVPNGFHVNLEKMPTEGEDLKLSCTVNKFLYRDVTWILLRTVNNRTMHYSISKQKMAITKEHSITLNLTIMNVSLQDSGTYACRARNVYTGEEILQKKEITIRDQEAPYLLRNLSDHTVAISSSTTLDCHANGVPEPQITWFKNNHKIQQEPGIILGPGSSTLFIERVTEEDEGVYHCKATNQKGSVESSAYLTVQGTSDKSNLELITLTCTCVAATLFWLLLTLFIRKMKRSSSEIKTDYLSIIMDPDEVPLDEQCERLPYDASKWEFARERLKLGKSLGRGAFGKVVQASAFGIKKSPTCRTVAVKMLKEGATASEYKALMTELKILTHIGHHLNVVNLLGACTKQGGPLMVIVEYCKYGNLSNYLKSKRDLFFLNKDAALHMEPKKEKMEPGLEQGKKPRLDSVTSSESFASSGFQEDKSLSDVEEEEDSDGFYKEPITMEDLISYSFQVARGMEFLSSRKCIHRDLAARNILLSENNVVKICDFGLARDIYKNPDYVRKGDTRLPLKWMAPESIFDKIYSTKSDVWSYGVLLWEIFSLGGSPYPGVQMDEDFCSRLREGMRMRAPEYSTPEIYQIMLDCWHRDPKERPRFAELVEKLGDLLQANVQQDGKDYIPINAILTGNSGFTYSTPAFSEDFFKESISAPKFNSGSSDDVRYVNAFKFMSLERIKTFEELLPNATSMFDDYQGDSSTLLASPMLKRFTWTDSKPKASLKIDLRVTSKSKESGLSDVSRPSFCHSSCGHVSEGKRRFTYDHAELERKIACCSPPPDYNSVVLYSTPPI
Assay: In Vitro Activity Kinase Assay
experimental.endpoint: Kd (nM)

                      smiles_representation  experimental_endpoint  experimental_value
0  CCNCCCCNc1ncc2c(n1)N(Cc1cccc(NC(=O)CC)c1)C(=O)N(c1c(Cl)c(OC)cc(OC)c1Cl)C2                     Kd                  49

---

Molecular target: Vascular endothelial growth factor receptor 2 (Homo sapiens)
Sequence (P35968 whole entry): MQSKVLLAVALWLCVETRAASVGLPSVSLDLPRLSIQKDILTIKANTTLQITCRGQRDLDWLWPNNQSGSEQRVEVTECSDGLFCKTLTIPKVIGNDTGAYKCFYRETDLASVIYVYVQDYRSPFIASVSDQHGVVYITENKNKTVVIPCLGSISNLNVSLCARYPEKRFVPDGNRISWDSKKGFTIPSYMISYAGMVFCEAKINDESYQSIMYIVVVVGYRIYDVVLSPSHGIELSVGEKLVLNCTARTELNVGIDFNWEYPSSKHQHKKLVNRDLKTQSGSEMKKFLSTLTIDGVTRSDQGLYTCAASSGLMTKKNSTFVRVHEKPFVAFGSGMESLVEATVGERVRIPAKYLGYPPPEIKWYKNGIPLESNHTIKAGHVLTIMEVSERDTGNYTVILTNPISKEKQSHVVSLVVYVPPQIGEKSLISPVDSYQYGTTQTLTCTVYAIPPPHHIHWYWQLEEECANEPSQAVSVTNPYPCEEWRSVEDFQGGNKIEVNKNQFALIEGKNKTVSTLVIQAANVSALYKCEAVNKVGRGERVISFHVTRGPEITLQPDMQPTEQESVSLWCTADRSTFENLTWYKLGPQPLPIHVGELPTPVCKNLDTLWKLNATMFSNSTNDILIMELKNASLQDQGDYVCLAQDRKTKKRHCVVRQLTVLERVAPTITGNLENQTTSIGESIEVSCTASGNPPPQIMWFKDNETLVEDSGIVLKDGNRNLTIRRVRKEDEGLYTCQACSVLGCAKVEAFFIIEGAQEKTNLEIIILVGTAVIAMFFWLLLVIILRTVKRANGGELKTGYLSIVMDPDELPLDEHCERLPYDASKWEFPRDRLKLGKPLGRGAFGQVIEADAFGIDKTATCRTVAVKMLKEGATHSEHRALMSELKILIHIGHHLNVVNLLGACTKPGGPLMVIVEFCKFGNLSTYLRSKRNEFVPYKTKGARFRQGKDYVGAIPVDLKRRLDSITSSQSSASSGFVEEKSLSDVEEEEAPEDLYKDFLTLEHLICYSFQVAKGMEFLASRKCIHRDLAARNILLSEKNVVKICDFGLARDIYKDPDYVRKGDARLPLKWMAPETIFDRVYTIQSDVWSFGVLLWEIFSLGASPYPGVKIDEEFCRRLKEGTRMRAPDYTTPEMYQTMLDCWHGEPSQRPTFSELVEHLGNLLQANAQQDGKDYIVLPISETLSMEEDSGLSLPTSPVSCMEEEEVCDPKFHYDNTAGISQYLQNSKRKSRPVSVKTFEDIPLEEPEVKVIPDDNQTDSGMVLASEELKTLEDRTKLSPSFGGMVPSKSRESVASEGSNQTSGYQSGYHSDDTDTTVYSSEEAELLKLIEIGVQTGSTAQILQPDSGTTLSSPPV
experimental.endpoint: Kd (nM)

                                   molecule  experimental_endpoint  value_units  experimental_value
0  CCNCCCCNc1ncc2c(n1)N(Cc1cccc(NC(=O)CC)c1)C(=O)N(c1c(Cl)c(OC)cc(OC)c1Cl)C2 [FRIN-1]                     Kd           nM                 470

---

Target: Vascular endothelial growth factor receptor 3 (Homo sapiens, UniProt P35916)
Sequence (P35916 whole entry): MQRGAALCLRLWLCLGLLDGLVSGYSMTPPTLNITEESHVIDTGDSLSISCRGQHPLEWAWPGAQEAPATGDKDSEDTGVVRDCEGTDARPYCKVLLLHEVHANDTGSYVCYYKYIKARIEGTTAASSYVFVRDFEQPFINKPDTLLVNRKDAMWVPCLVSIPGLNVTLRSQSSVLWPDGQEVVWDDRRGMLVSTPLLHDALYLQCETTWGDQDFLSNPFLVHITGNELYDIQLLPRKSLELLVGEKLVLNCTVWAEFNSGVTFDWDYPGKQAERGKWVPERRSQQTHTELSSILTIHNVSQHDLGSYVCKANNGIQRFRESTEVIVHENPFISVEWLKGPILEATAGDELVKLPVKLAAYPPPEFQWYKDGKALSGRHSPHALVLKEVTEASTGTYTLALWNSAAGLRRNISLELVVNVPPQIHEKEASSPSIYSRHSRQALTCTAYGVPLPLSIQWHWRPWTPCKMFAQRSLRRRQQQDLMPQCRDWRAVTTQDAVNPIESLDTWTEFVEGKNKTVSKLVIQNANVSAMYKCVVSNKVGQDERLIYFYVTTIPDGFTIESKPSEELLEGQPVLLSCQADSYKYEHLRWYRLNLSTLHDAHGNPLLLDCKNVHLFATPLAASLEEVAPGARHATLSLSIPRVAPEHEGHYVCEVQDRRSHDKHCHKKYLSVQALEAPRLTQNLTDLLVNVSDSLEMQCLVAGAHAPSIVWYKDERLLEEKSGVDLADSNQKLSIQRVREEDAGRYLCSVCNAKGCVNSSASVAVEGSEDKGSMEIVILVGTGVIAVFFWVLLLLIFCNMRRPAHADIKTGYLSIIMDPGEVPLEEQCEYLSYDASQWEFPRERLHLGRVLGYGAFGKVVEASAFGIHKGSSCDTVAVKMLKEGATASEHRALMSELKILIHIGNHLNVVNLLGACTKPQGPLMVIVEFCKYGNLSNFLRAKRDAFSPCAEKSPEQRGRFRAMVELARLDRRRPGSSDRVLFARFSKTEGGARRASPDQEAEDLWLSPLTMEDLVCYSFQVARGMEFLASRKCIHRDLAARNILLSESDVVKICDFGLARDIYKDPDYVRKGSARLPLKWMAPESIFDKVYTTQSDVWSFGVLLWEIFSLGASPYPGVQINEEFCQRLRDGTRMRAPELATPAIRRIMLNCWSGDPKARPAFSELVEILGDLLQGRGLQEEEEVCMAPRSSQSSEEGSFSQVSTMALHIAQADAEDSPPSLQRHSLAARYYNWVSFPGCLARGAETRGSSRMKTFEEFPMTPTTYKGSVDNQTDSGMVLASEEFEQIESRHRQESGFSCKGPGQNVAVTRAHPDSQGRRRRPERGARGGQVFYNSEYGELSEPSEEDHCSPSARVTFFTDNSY
pKd: −log10 of the molar value.
experimental.endpoint: pKd

In [3]: df
Out[3]:
                      smiles_representation  experimental_value
0  CCNCCCCNc1ncc2c(n1)N(Cc1cccc(NC(=O)CC)c1)C(=O)N(c1c(Cl)c(OC)cc(OC)c1Cl)C2                6.47
